System: MDA-N
Test: NCI tumour cell line growth inhibition, 48 h
Calls of active or inactive are those of the source. Cut-off read from the data, not from the text of the source: active = GI50 up to about 1.1 µM and inactive = higher.
Select the matching outcome among active, inactive

{"compound": "C#CCCOC1(OC)N=NC(C)(C)O1 (centres undefined)", "tested on": "MDA-N", "label value": "inactive"}
{"compound": "C[N+](C)(CCNc1ccc(NCC[N+](C)(C)Cc2ccc([N+](=O)[O-])cc2)c2c1C(=O)c1ccccc1C2=O)Cc1ccc([N+](=O)[O-])cc1", "tested on": "MDA-N", "label value": "inactive"}
{"compound": "O=C=NCCCCCCN1C(=O)N2C(c3ccccc3)N(CCCCCCN=C=O)C(=O)N2C1c1ccccc1 (centres undefined)", "tested on": "MDA-N", "label value": "inactive"}

Now take the following compound into account.
Query string: Call for entry COC(=O)/C(=N/NC(N)=O)C(C(=O)C(=O)Nc1ccc(C)cc1)c1nc2ccc(C(=O)c3ccccc3)cc2nc1O (centres undefined) :
Result string: inactive

###

System: LOX IMVI
Test: NCI tumour cell line growth inhibition, 48 h
The source made the active and inactive calls. No stated cut-off is given here; in the data, active = GI50 up to about 1.1 µM and inactive = higher.
We begin with a simple list: items and their reported GI50.

Query string: Which measured GI50 value corresponds to CCCCCCCC(=O)NC(C)(C)C(=O)NCC(=O)NC(CC(C)C)C(=O)NC(C)(C)C(=O)NCC(=O)NCC(=O)NC(CC(C)C)C(=O)NC(C)(C)C(=O)NCC(=O)NC(C(=O)NC(CO)CC(C)C)C(C)CC (centres undefined) ?
Result string: 3.53 µM (inactive)

Query string: # input compound: `Cc1ccc(S(=O)(=O)c2ccc(C)cc2[N+](=O)[O-])cc1` ; wanted: its GI50
Result string: 82.8 µM (inactive)

###

System: MDA-MB-435
Assay: NCI tumour cell line growth inhibition, 48 h
Calls of active or inactive are those of the source. Cut-off read from the data, not from the text of the source: active = GI50 up to about 1.1 µM and inactive = higher.
Listing of recorded GI50 by entry.

{"compound": "COc1cc(C2C(Cl)C(=O)N2c2ccc(Br)cc2)cc(I)c1O (stereo unspecified)", "GI50": "47.5 µM (inactive)"}
{"compound": "COc1ccc(-c2cc(=O)c3c(OC)c(OC)c(OC)c(OC)c3o2)cc1OC", "GI50": "45.1 µM (inactive)"}
{"compound": "CNC(=O)C(C)NC(=O)C(Cc1ccccc1)NC(=O)c1ccccc1 (stereo unspecified)", "GI50": "> 100 µM (inactive)"}
{"compound": "OC(C1CO1)C(O)C1CO1 (stereo unspecified)", "GI50": "101 µM (inactive)"}
{"compound": "Cc1c(N/C=C(\\C#N)C(=O)c2ccc(Cl)cc2)c(=O)n(-c2ccccc2)n1C", "GI50": "34.9 µM (inactive)"}

Please look at the following compound next.
Query string: Would you kindly share the measured GI50 for Cc1cc(Cc2c(F)c(F)c(C(c3cc(C)no3)c3c(F)c(F)c(F)c(F)c3F)c(F)c2F)on1 (stereo unspecified) ?
Result string: 3.04 µM (inactive)

###

Tested on: T47D
Test: NCI tumour cell line growth inhibition, 48 h
Calls of active or inactive are those of the source. Cut-off read from the data, not from the text of the source: active = GI50 up to about 1.1 µM and inactive = higher.
endpoint name: GI50

These recorded examples may help you get a feel for the data.
{"compound": "Cc1ccc(OCC2OC(n3cnc4c(Cl)nc(N)nc43)CC2Oc2ccc(C)cc2)cc1 (centres undefined)", "GI50": "20.3 µM (inactive)"}
{"compound": "CN(C)C(=O)N1N[C@H](c2ccccc2)[C@@H]1c1ccccc1", "GI50": "> 100 µM (inactive)"}
{"compound": "CC1CCC2C(C)C3C(CC4C5CC=C6CC(OC7OC(CO)C(O)C(OC8OC(CO)C(O)C(O)C8O)C7OC7OC(C)C(O)C(O)C7O)CCC6(C)C5CCC43C)N2C1 (centres undefined)", "GI50": "19.3 µM (inactive)"}

// switching to the query compound
Query string: T47D / GI50 / CCOC(=O)C(NC(=O)c1ccccc1)(N1CCN(c2cc3c(cc2F)c(=O)c(C(=O)O)cn3C2CC2)CC1)C(F)(F)F (centres undefined) : value?
Result string: 20.6 µM (inactive)

###

Recorded GI50, one value per entry.
Tested on: NCI-H460
Experiment: NCI tumour cell line growth inhibition, 48 h
Calls of active or inactive are those of the source. No stated cut-off is given here; in the data, active = GI50 up to about 1.1 µM and inactive = higher.

{"compound": "CNC(=O)C(C)NC(=O)C(Cc1ccccc1)NC(=O)c1ccccc1 (stereo unspecified)", "reported value": "> 100 µM (inactive)"}
{"compound": "COc1ccc(C(=C(C#N)C#N)c2ccc(OC)cc2)cc1", "reported value": "> 100 µM (inactive)"}
{"compound": "COc1cc2c(c(O)c1O)-c1ccc(OC)c(=O)cc1C(NC(C)=O)CC2 (stereo unspecified)", "reported value": "25.2 µM (inactive)"}
{"compound": "COc1cccc2c1C(=O)C=CC2=O", "reported value": "15.6 µM (inactive)"}
{"compound": "Nc1ccccc1C(=O)/C=C/c1c(O)ccc2ccccc12", "reported value": "> 100 µM (inactive)"}
{"compound": "COc1ccc(OCC(=N/NC(=O)c2ccncc2)/N=C/c2cccnc2)cc1", "reported value": "> 100 µM (inactive)"}

Query string: Would you kindly share the measured GI50 for `Cc1c(N/C=C(\C#N)C(=O)c2ccc(Cl)cc2)c(=O)n(-c2ccccc2)n1C` ?
Result string: > 100 µM (inactive)

Query string: Entry `COc1cc(Cl)c(CC(=O)c2c[nH]c3ccccc23)cc1OC` has what GI50?
Result string: > 100 µM (inactive)

Query string: Report GI50 for `Cc1cc2c(cc1C)[n+]([O-])c(C(=O)CC(=O)C(=O)Nc1ccccc1C(C)C)c(C)[n+]2[O-]` please.
Result string: > 100 µM (inactive)

Query string: Form field: reported GI50 of CN(C)c1ccc(C2CC(=O)C(C#N)=C(c3ccccc3)NN2C)cc1 (stereo unspecified)
Result string: 5.52 µM (inactive)

Query string: What value of GI50 has been recorded for this entry: COC(=O)CC(C(C(=O)OC)C(=O)OC)N1C(=O)OCC1c1ccccc1 (stereo unspecified)
Result string: > 100 µM (inactive)

###

System: HT-29
Assay: NCI tumour cell line growth inhibition, 48 h
Calls of active or inactive are those of the source. Cut-off read from the data, not from the text of the source: active = GI50 up to about 1.1 µM and inactive = higher.
endpoint name: GI50

{"compound": "O=C(Nc1ccc(Cl)cc1)c1cc2c(cc1Cl)Sc1nccn1S2(=O)=O", "reported value": "> 100 µM (inactive)"}

Query string: Returns the measured GI50 for the input compound. Input: CCCCCCCCC/C=C1\CCC(CN2CCOCC2)C1=O (stereo unspecified)
Result string: 2.88 µM (inactive)

Query string: What value of GI50 has been reported for the following compound? Oc1ccc2c(c1)OCC1(O)Cc3cc(O)c(O)cc3C21 (stereo unspecified)
Result string: 21.3 µM (inactive)

###

Tested on: NCI/ADR-RES
Experiment: NCI tumour cell line growth inhibition, 48 h
Activity calls are given as the source filed them. Cut-off read from the data, not from the text of the source: active = GI50 up to about 1.1 µM and inactive = higher.
endpoint name: GI50

Query string: Field request: GI50 | item: `Cc1ccc2c(=O)c(-c3nnc(NC4CCCCC4)s3)c[nH]c2n1`
Result string: > 100 µM (inactive)

###

Listed here are compounds together with their documented GI50.
Test system: OVCAR-8
Assay: NCI tumour cell line growth inhibition, 48 h
Calls of active or inactive are those of the source. No stated cut-off is given here; in the data, active = GI50 up to about 1.1 µM and inactive = higher.

Some compounds with known GI50 results, for comparison:
{"compound": "Cc1c(N/C=C(\\C#N)C(=O)c2ccc(Cl)cc2)c(=O)n(-c2ccccc2)n1C", "GI50": "91.8 µM (inactive)"}
{"compound": "FC(F)(F)c1ccc2nc(Sc3ccccn3)cnc2c1", "GI50": "38.8 µM (inactive)"}
{"compound": "Cc1ccc(-c2sc(-c3ccc(C)cc3)c3c2C2CCC3C2)cc1", "GI50": "> 50 µM (inactive)"}
{"compound": "CN1C(=O)[C@H](c2c[nH]c3ccccc23)[C@H](c2c[nH]c3ccccc23)C1=O", "GI50": "31 µM (inactive)"}
{"compound": "CCOC(=O)Nc1ccc(S(=O)(=O)OC)cc1.CCOC(=O)Nc1ccc(S(=O)(=O)OC)cc1.NNC(=O)c1ccncc1", "GI50": "> 50 µM (inactive)"}
{"compound": "COC1=CC(=O)C2(C=C1OC)OC[C@H]1Oc3c(ccc4c3C=CC(C)(C)O4)C(=O)[C@H]12 (stereo partly drawn)", "GI50": "37.5 µM (inactive)"}

Query string: Need GI50, item C=CC(C)(C)C1(CC(OC)OC)C(=O)N(C)c2ccccc21 (stereo not drawn)
Result string: > 25 µM (inactive)

Query string: Return reported GI50; argument: NC(Cc1cc(Br)c(O)c(Br)c1)C(=O)O (stereo not drawn)
Result string: > 100 µM (inactive)

Query string: State the recorded GI50 for this entry: `FC(F)(F)c1cc(N(C2c3ccccc3C=Cc3ccccc32)P(Cl)Cl)cc(C(F)(F)F)c1`
Result string: 17.6 µM (inactive)

Query string: What value of GI50 has been recorded for this entry: `CN(C)C(=O)N1N[C@H](c2ccccc2)[C@@H]1c1ccccc1`
Result string: > 100 µM (inactive)

Query string: Using the record for `Cc1nc(SCC(=O)Nc2ccc(Cl)cc2)c2sc(=S)n(-c3ccccc3)c2n1` , report its GI50.
Result string: > 10 µM (inactive)

Query string: Tell me the measured GI50 of COC(=O)C1=C(O)C(C(=O)OC)[C@]2(O)[C@H](C(=O)OC)[C@H]1C[C@@H](c1ccc(OC)c(OC)c1)[C@H]2C(=O)OC (stereo partly drawn) , please.
Result string: 13.3 µM (inactive)

Query string: Query: GI50; subject: COc1ccc2[nH]cc(CCNC(=O)[C@](O)(Cc3cn(C)c4ccccc34)[C@@]3(O)OCC(O)C3O)c2c1 (stereo partly drawn)
Result string: > 100 µM (inactive)

Query string: What value of GI50 has been recorded for this entry: O=C(CC1(O)C(=O)Nc2c(Cl)ccc(Cl)c21)c1ccco1 (stereo not drawn)
Result string: 27.2 µM (inactive)

Query string: Consider the compound `N#Cc1ccc(Cc2ccccn2)cc1Cl` and give its measured GI50.
Result string: > 100 µM (inactive)
